Assay: LD50 in mice (Lichfield and Wilcoxon method)
Settings: mouse, in vivo, ip, mice, female, IP; read-out: LD50
parameter: LD50

Exam item: Fill in the blank: the reported LD50 of CC[C@@]1(O)CN2CC[C@H]1C[C@@H]2[C@@H](O)c1ccnc2ccc(OC)cc12 [3S-hydroxy-10,11-dihydroquinidine] is ____.
Marked response: 180 mg/kg

----------
Test: LD50 in rats (Lichfield and Wilcoxon method)
Settings: rat, in vivo, male, oral
parameter: LD50 (mg/kg)
Response body: numeric value in mg/kg, unit text excluded.

Exam item: Fill in the blank: the reported LD50 of CC[C@@]1(O)CN2CC[C@H]1C[C@@H]2[C@@H](O)c1ccnc2ccc(OC)cc12 [3S-hydroxy-10,11-dihydroquinidine] is ____.
Marked response: 640

----------
Assay: LD50 in mice (Lichfield and Wilcoxon method)
Conditions: mouse, in vivo, ip, mice, male, IP; read-out: LD50
parameter: LD50 (mg/kg)
Response body: numeric value in mg/kg, unit text excluded.

Exam item: Fill in the blank: the reported LD50 of CC[C@@]1(O)CN2CC[C@H]1C[C@@H]2[C@@H](O)c1ccnc2ccc(OC)cc12 [3S-hydroxy-10,11-dihydroquinidine] is ____.
Marked response: 280

----------
Assay: LD50 in mice (Lichfield and Wilcoxon method)
Details: mouse, in vivo, po, mice, male, oral; read-out: LD50
parameter: LD50 (mg/kg)
Response body: numeric value in mg/kg, unit text excluded.

Exam item: Fill in the blank: the reported LD50 of CC[C@@]1(O)CN2CC[C@H]1C[C@@H]2[C@@H](O)c1ccnc2ccc(OC)cc12 [3S-hydroxy-10,11-dihydroquinidine] is ____.
Marked response: 975

// provenance: patent US4716171A
